B1: LINE1-mini (parent)
chain: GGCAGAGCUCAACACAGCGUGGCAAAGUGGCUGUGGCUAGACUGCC

variants of: B1; assay: self-cleavage, relative activity (ratio to wild type); higher = more cleavage; in vitro, sequencing; the parent is a self-cleaving ribozyme
Would you please tag the item true (1) when its self-cleavage is 0.1 or above, and false (0) when it is below?

[in] Could you verify whether the entry GGCAGAGCUCAACACAGCGUGGCAAAGUGGCAGUGGCUUGACUGCC [U32A A39U] shows self-cleavage of no less than 0.1?
[out] false (0)

[in] Could you verify whether the entry GGCAGAGCUCAACAUAACGUGGCAAAGUGGCUGUGGCUAGACUGCC [C15U G17A] shows self-cleavage of no less than 0.1?
[out] false (0)

[in] Could you verify whether the entry GGCCGAGCUCAACACAGCGUGGCAAAGUGGCUGUGGCUAGACUCCC [A4C G44C] shows self-cleavage of no less than 0.1?
[out] true (1)

[in] Could you verify whether the entry GGCAGAGCUCAACACAGCAUGGCAAAGUGGGUGUGGCUAGACUGCC [G19A C31G] shows self-cleavage of no less than 0.1?
[out] true (1)

[in] Could you verify whether the entry GGCAGAGCUCAACACAGCGAGGCAAAGUGGCUGUGGCCAGACUGCC [U20A U38C] shows self-cleavage of no less than 0.1?
[out] true (1)

[in] Could you verify whether the entry GGCAGAGCUCAACACAGCGUGGCAAAGUGGCUGUGGCUAGAUUGCA [C42U C46A] shows self-cleavage of no less than 0.1?
[out] true (1)

[in] Could you verify whether the entry GGCAGAGCUCAAUACAGCGUGGCAAAGUGGCUGUGGCUAGUCUGCC [C13U A41U] shows self-cleavage of no less than 0.1?
[out] true (1)

[in] Could you verify whether the entry GGCAGAGCUCAACACUGCGUGGCAAAGUGGCUGUGGAUAGACUGCC [A16U C37A] shows self-cleavage of no less than 0.1?
[out] true (1)

[in] Could you verify whether the entry GGCAGAGCUCAAUACAGCGUGGCAAAGUGGCUGUGGCUAUACUGCC [C13U G40U] shows self-cleavage of no less than 0.1?
[out] false (0)

[in] Could you verify whether the entry GGCAGAGCUCAACACAGCGUUGCAAAGUGGCUGUGGCGAGACUGCC [G21U U38G] shows self-cleavage of no less than 0.1?
[out] false (0)

[in] Could you verify whether the entry GGCAGAGCUCAACACAGCGUGGCAAAGUGGCUGUCGCAAGACUGCC [G35C U38A] shows self-cleavage of no less than 0.1?
[out] true (1)

[in] Could you verify whether the entry GGCAGAGCUCAACACAGCGUGGCAAAGUUGCUUUGGCUAGACUGCC [G29U G33U] shows self-cleavage of no less than 0.1?
[out] true (1)

[in] Could you verify whether the entry GGCAGAGCUCAACACAGCGUGGCAAAGUGGCUGUGGCUAGAGUGCA [C42G C46A] shows self-cleavage of no less than 0.1?
[out] false (0)

[in] Could you verify whether the entry GGCAGCGCUCAACACAGGGUGGCAAAGUGGCUGUGGCUAGACUGCC [A6C C18G] shows self-cleavage of no less than 0.1?
[out] true (1)

[in] Could you verify whether the entry GGCAGAGCUCAACAGAGCGUGGCAAAGUGGCUGUGGAUAGACUGCC [C15G C37A] shows self-cleavage of no less than 0.1?
[out] false (0)

[in] Could you verify whether the entry GGCAGAGCUAAACACAGCGUGGCACAGUGGCUGUGGCUAGACUGCC [C10A A25C] shows self-cleavage of no less than 0.1?
[out] false (0)

[in] Could you verify whether the entry GGCAGAGCUUAACACACCGUGGCAAAGUGGCUGUGGCUAGACUGCC [C10U G17C] shows self-cleavage of no less than 0.1?
[out] true (1)

[in] Could you verify whether the entry GGCAGAGCUCAACAGAGCGUGGCAAACUGGCUGUGGCUAGACUGCC [C15G G27C] shows self-cleavage of no less than 0.1?
[out] false (0)

[in] Could you verify whether the entry GGCAGAGCUCAACACAGCGUGACAAAUUGGCUGUGGCUAGACUGCC [G22A G27U] shows self-cleavage of no less than 0.1?
[out] true (1)

[in] Could you verify whether the entry GCCAGAGCUCUACACAGCGUGGCAAAGUGGCUGUGGCUAGACUGCC [G2C A11U] shows self-cleavage of no less than 0.1?
[out] false (0)

[in] Could you verify whether the entry GGCAGAGCUCAACACUGCGUGGCAAAGUGGCUGAGGCUAGACUGCC [A16U U34A] shows self-cleavage of no less than 0.1?
[out] false (0)

[in] Could you verify whether the entry GGCAGAGCUCAACACAGAGUUGCAAAGUGGCUGUGGCUAGACUGCC [C18A G21U] shows self-cleavage of no less than 0.1?
[out] true (1)

[in] Could you verify whether the entry GGCAGAGCUCAACACAGCGUGUCAAAGGGGCUGUGGCUAGACUGCC [G22U U28G] shows self-cleavage of no less than 0.1?
[out] true (1)

[in] Could you verify whether the entry GGCAGAGCUCAACACAGCGUGAUAAAGUGGCUGUGGCUAGACUGCC [G22A C23U] shows self-cleavage of no less than 0.1?
[out] true (1)

[in] Could you verify whether the entry GGAAGAGCACAACACAGCGUGGCAAAGUGGCUGUGGCUAGACUGCC [C3A U9A] shows self-cleavage of no less than 0.1?
[out] true (1)

[in] Could you verify whether the entry GGCGGAGCUCAACACAGCGUGGCAAACUGGCUGUGGCUAGACUGCC [A4G G27C] shows self-cleavage of no less than 0.1?
[out] true (1)

[in] Could you verify whether the entry GGCAGAGCUCUACACAGCGUGGCAAAGUGGCUGUGGCUAGGCUGCC [A11U A41G] shows self-cleavage of no less than 0.1?
[out] false (0)

[in] Could you verify whether the entry GGGAGAGCUCAACACAGCGUGGCAAAGUGGCUGUGGCUAGACGGCC [C3G U43G] shows self-cleavage of no less than 0.1?
[out] true (1)

[in] Could you verify whether the entry GGCAGAGCUCAACAAAGCGUGGCAAAGUGGCUGUGCCUAGACUGCC [C15A G36C] shows self-cleavage of no less than 0.1?
[out] false (0)

[in] Could you verify whether the entry GGCAGAGCUCAACACAGCGUGGCAAACUGCCUGUGGCUAGACUGCC [G27C G30C] shows self-cleavage of no less than 0.1?
[out] true (1)

[in] Could you verify whether the entry GGCAGAGCUCAACACAGCGUGGCAAACUGGGUGUGGCUAGACUGCC [G27C C31G] shows self-cleavage of no less than 0.1?
[out] false (0)

[in] Could you verify whether the entry GGCAGAGCUCAACACAGCGUGGCAAAGUGGCUUUGGCUAGACUGUC [G33U C45U] shows self-cleavage of no less than 0.1?
[out] false (0)

[in] Could you verify whether the entry GCCAGAGCUCAACACAGCGUGGCAAAGUGGCUCUGGCUAGACUGCC [G2C G33C] shows self-cleavage of no less than 0.1?
[out] false (0)

[in] Could you verify whether the entry GACAGAGCUCAACACAGCGUGGCAAAGUGGCUGUGGCUAGAGUGCC [G2A C42G] shows self-cleavage of no less than 0.1?
[out] true (1)

[in] Could you verify whether the entry GGCAGAGCUCAACACAUCGUGGCAAAGUGGCUGUGGCUUGACUGCC [G17U A39U] shows self-cleavage of no less than 0.1?
[out] true (1)

[in] Could you verify whether the entry GGCAGAGCUGAACACAGCGUGGCAAAGUGGAUGUGGCUAGACUGCC [C10G C31A] shows self-cleavage of no less than 0.1?
[out] false (0)

[in] Could you verify whether the entry GGCAGAGCUCAAUACAGCGUGGCAAAGUGGCUGUGGCUAGACUGCG [C13U C46G] shows self-cleavage of no less than 0.1?
[out] false (0)

[in] Could you verify whether the entry GGCAGAACUCAACGCAGCGUGGCAAAGUGGCUGUGGCUAGACUGCC [G7A A14G] shows self-cleavage of no less than 0.1?
[out] true (1)

[in] Could you verify whether the entry GGCAGCGCUCAACACAGCGUGGCCAAGUGGCUGUGGCUAGACUGCC [A6C A24C] shows self-cleavage of no less than 0.1?
[out] true (1)

[in] Could you verify whether the entry GGCAGAGCUCAACACAGCGUGGCAAAGUGUCUUUGGCUAGACUGCC [G30U G33U] shows self-cleavage of no less than 0.1?
[out] false (0)

[in] Could you verify whether the entry GGCAUAGCUCAACACAGCGUGGCAAAGUGGCUGUGGCUAGACUGCG [G5U C46G] shows self-cleavage of no less than 0.1?
[out] true (1)

[in] Could you verify whether the entry GGCAGAGCUCAACACAGCGUAGCAAAGUGGCUGUGGCUAGACUCCC [G21A G44C] shows self-cleavage of no less than 0.1?
[out] true (1)

[in] Could you verify whether the entry GUCAGAGCUCAACACAGCGUGGCGAAGUGGCUGUGGCUAGACUGCC [G2U A24G] shows self-cleavage of no less than 0.1?
[out] false (0)

[in] Could you verify whether the entry GGCAGAGCUCAACUCAGCGUGGCAAAGUGGCUGUGGCUAGACCGCC [A14U U43C] shows self-cleavage of no less than 0.1?
[out] false (0)

[in] Could you verify whether the entry GGCAAAGCUCAACACAGCGUGGCAACGUGGCUGUGGCUAGACUGCC [G5A A26C] shows self-cleavage of no less than 0.1?
[out] true (1)

[in] Could you verify whether the entry GGCAGAGCUCAACACAGCGUGGCAAAGUGGCUUUGGCUAAACUGCC [G33U G40A] shows self-cleavage of no less than 0.1?
[out] false (0)

[in] Could you verify whether the entry GGCAGGGCUCAACACAGCGUGGCAAAGUGGCUGUGGCUAGACUGCA [A6G C46A] shows self-cleavage of no less than 0.1?
[out] true (1)

[in] Could you verify whether the entry GGCAGAGCUCAACACAGCGUGGCAAAGUGGGUGUGGUUAGACUGCC [C31G C37U] shows self-cleavage of no less than 0.1?
[out] false (0)

[in] Could you verify whether the entry GGCAGAGCUCAACACAGCGUGACAAAGUGGCAGUGGCUAGACUGCC [G22A U32A] shows self-cleavage of no less than 0.1?
[out] false (0)

[in] Could you verify whether the entry GGCAGAGCUCUACACAGCGUGGCAAAGUGGCUGUGGGUAGACUGCC [A11U C37G] shows self-cleavage of no less than 0.1?
[out] false (0)

[in] Could you verify whether the entry GGCAGAGCUCUACACAGCGUGGCCAAGUGGCUGUGGCUAGACUGCC [A11U A24C] shows self-cleavage of no less than 0.1?
[out] true (1)

[in] Could you verify whether the entry GGCAGAGCUCAACACAGGUUGGCAAAGUGGCUGUGGCUAGACUGCC [C18G G19U] shows self-cleavage of no less than 0.1?
[out] true (1)

[in] Could you verify whether the entry GGCAGAACUCAACACAGCGUGGCAAAGUGGCUGUUGCUAGACUGCC [G7A G35U] shows self-cleavage of no less than 0.1?
[out] true (1)

[in] Could you verify whether the entry GGCAGCGCUCAACACAGCGUGGAAAAGUGGCUGUGGCUAGACUGCC [A6C C23A] shows self-cleavage of no less than 0.1?
[out] true (1)

[in] Could you verify whether the entry GGCAGAGAUCAACACUGCGUGGCAAAGUGGCUGUGGCUAGACUGCC [C8A A16U] shows self-cleavage of no less than 0.1?
[out] true (1)

[in] Could you verify whether the entry GGCAGAGCUCAACACAGCGUGGCAAAGUGGCUGUGCCUAGUCUGCC [G36C A41U] shows self-cleavage of no less than 0.1?
[out] true (1)

[in] Could you verify whether the entry GGCAGAGCUCAACACAUCGUGGCAAAGUGGCUGUGGCUAGUCUGCC [G17U A41U] shows self-cleavage of no less than 0.1?
[out] false (0)

Data origin, for the record: the RNAGym collection of RNA variant scans (doi:10.7554/elife.90254)
